- ASSAY REMARKS: Pharmacokinetics in SD rats
- Assay type: in vivo
- REPORTED CONDITIONS: Sprague-Dawley, rat, plasma, IV 1 mg/kg, vemurafenib dosed
- Experimental: Compounds disclosed herein are prodrugs. […] However, the prodrug compounds are modified in vivo to produce a parent compound that has known inhibitory activities against certain protein kinases. Kinase inhibition activity of prodrug compounds is established by quantitating the blood or plasma levels of parent compound after prodrug administration. […] Selected compounds of the invention and Vemurafenib were assessed in pharmacokinetic studies in mice, rats, dogs or monkeys. […]
EXPERIMENTAL READOUT: AUC(0-t) (ng·h/mL)
State the answer as a number, implicitly in ng·h/mL.

Documented AUC(0-t) of CCCS(=O)(=O)Nc1ccc(F)c(C(=O)c2c[nH]c3ncc(-c4ccc(Cl)cc4)cc23)c1F : 25200

----------
- ASSAY REMARKS: Pharmacokinetics in SD rats
- Format: in vivo
- REPORTED CONDITIONS: Sprague-Dawley, rat, plasma, PO 10 mg/kg, vemurafenib dosed
EXPERIMENTAL READOUT: half-life (h)
State the answer as a number, implicitly in h.

Documented half-life of CCCS(=O)(=O)Nc1ccc(F)c(C(=O)c2c[nH]c3ncc(-c4ccc(Cl)cc4)cc23)c1F : 3.54

----------
- ASSAY REMARKS: Stability in human plasma
- Type: in vitro ADME
- REPORTED CONDITIONS: read-out: Human T1/2
Record form. Attribute: half-life at 2 μM. Fill in for each entry.
State the answer as a number, implicitly in min.

Documented half-life at 2 μM of CCCS(=O)(=O)Nc1ccc(F)c(C(=O)c2cn(COC(=O)OC(C)C)c3ncc(-c4ccc(Cl)cc4)cc23)c1F : 79.6

Documented half-life at 2 μM of CCCS(=O)(=O)Nc1ccc(F)c(C(=O)c2cn(C(C)OC(=O)CC)c3ncc(-c4ccc(Cl)cc4)cc23)c1F (stereo not shown) : 88.1

Documented half-life at 2 μM of CCCS(=O)(=O)Nc1ccc(F)c(C(=O)c2cn(COC(=O)CN)c3ncc(-c4ccc(Cl)cc4)cc23)c1F.Cl : 7.47

Documented half-life at 2 μM of CCCS(=O)(=O)Nc1ccc(F)c(C(=O)c2cn(COC(=O)[C@@H](N)CC(C)C)c3ncc(-c4ccc(Cl)cc4)cc23)c1F.Cl : 3.06

----------
- ASSAY REMARKS: Pharmacokinetics in SD rats
- Format: in vivo
- REPORTED CONDITIONS: Sprague-Dawley, rat, plasma, PO 10 mg/kg, vemurafenib dosed
EXPERIMENTAL READOUT: Tmax (h)
State the answer as a number, implicitly in h.

Documented Tmax of CCCS(=O)(=O)Nc1ccc(F)c(C(=O)c2c[nH]c3ncc(-c4ccc(Cl)cc4)cc23)c1F : 4

----------
- ASSAY REMARKS: Stability in rat plasma
- Format: in vitro ADME
- REPORTED CONDITIONS: read-out: Rat T1/2
EXPERIMENTAL READOUT: half-life at 2 μM (min)
State the answer as a number, implicitly in min.

Documented half-life at 2 μM of CCCS(=O)(=O)Nc1ccc(F)c(C(=O)c2cn(C(OC(=O)C(C)C)C(C)C)c3ncc(-c4ccc(Cl)cc4)cc23)c1F (stereo not shown) : 157

Documented half-life at 2 μM of CCCS(=O)(=O)Nc1ccc(F)c(C(=O)c2cn(COC(=O)C(C)(C)C)c3ncc(-c4ccc(Cl)cc4)cc23)c1F : 68.8

Documented half-life at 2 μM of CCCS(=O)(=O)Nc1ccc(F)c(C(=O)c2cn(C(C)OC(=O)OCC)c3ncc(-c4ccc(Cl)cc4)cc23)c1F (stereo not shown) : 49.5

Documented half-life at 2 μM of CCCS(=O)(=O)Nc1ccc(F)c(C(=O)c2cn(C(C)OC(=O)CC)c3ncc(-c4ccc(Cl)cc4)cc23)c1F (stereo not shown) : 55.8

Documented half-life at 2 μM of CCCS(=O)(=O)Nc1ccc(F)c(C(=O)c2cn(COC(=O)[C@@H](N)CC(C)C)c3ncc(-c4ccc(Cl)cc4)cc23)c1F.Cl : 3.42

Documented half-life at 2 μM of CCCS(=O)(=O)Nc1ccc(F)c(C(=O)c2cn(COC(=O)C(N)C(C)C)c3ncc(-c4ccc(Cl)cc4)cc23)c1F.Cl (stereo not shown) : 9.61

Documented half-life at 2 μM of CCCS(=O)(=O)Nc1ccc(F)c(C(=O)c2cn(COC(=O)[C@@H](N)C(C)CC)c3ncc(-c4ccc(Cl)cc4)cc23)c1F.Cl (stereo partly shown) : 15.2

Documented half-life at 2 μM of CCCS(=O)(=O)Nc1ccc(F)c(C(=O)c2cn(COC(=O)OC(C)C)c3ncc(-c4ccc(Cl)cc4)cc23)c1F : 55.9

Documented half-life at 2 μM of CCCS(=O)(=O)Nc1ccc(F)c(C(=O)c2cn(C(C)OC(=O)OC(C)C)c3ncc(-c4ccc(Cl)cc4)cc23)c1F (stereo not shown) : 56.3

Documented half-life at 2 μM of CCCS(=O)(=O)Nc1ccc(F)c(C(=O)c2cn(C(OC(=O)CC)C(C)C)c3ncc(-c4ccc(Cl)cc4)cc23)c1F (stereo not shown) : 49.8

Documented half-life at 2 μM of CCCS(=O)(=O)Nc1ccc(F)c(C(=O)c2cn(COC(=O)C(C)C)c3ncc(-c4ccc(Cl)cc4)cc23)c1F : 28.6

Documented half-life at 2 μM of CCCS(=O)(=O)Nc1ccc(F)c(C(=O)c2cn(COC(=O)CN)c3ncc(-c4ccc(Cl)cc4)cc23)c1F.Cl : 5.9

Documented half-life at 2 μM of CCCS(=O)(=O)Nc1ccc(F)c(C(=O)c2cn(COC(=O)CC)c3ncc(-c4ccc(Cl)cc4)cc23)c1F : 18.6
